Documented melting point across a set of compounds

S=C1CN=C(c2ccccc2Cl)c2ccccc2N1; 228 to 229 °C
NC1=NN(/C=N/O)C(=O)C1Cc1ccccc1 (stereo unspecified); 105 to 108 °C

# compound CC1(C)CC(O)c2cc(OCc3ccccc3)ccc2O1 (stereo unspecified) ; its melting point = 83 to 84 °C

melting point in this record for O=C(O)[C@H](CCc1ccccc1)NS(=O)(=O)c1ccc2c(c1)sc1ccccc12 : 210 to 212 °C

Lookup result for Cc1ccc(-c2cnccn2)cc1 ; measured melting point: 54 to 55 °C

The compound COc1cc(C(C)=O)ccc1OC/C=C/CBr showed melting point equal to 71 to 72 °C

COc1ccc(CN(Cc2ccc(OC)cc2)c2nc(-c3ccccc3)c(-c3ccc(=O)n(C(C)C)n3)nc2C#N)cc1 yielded melting point of 207 to 209 °C

# melting point of O=C(Nc1ccc([N+](=O)[O-])cc1)C(=O)N1CCC(Cc2ccccc2)CC1 = 162 to 165 °C

Reported melting point of CN1CCC(NC(=O)c2cccc(Cl)c2)C12CCCCC2 (stereo unspecified) : 121 to 122 °C

Looking up c1ccc(CN2CCN(c3ccnc4[nH]ccc34)CC2)cc1 , I found its melting point recorded as 175 °C

Item: CCOc1cn(C)cc(-c2ccc(Cl)c(C(F)(F)F)c2)c1=O | melting point: 158 to 159 °C

What the record says about CCNC(=NC#N)NC : melting point is 120 to 124 °C

For reference, reported melting point for CCCCCCCCCCCC(=O)Nc1ccc2nc(S)[nH]c2c1 stands at 266 to 267 °C

====

melting point listing for selected compounds.

# annotated cases, reported melting point shown
CCOC(=O)Nc1nc(-c2ccccc2)c(-c2nc3ccccc3c(=O)n2-c2cccc(Cl)c2)s1; 235 to 236 °C
Brc1cccc(Br)c1OC1C=CC(Oc2c(Br)cccc2Br)C1 (stereo not drawn); 205 to 206 °C
CCOC(=O)c1ncc2[nH]c3ccc(C4CCCCC4)cc3c2c1COC; 254 to 266 °C
CCOC(=O)c1ccc2c(c1)c(C#Cc1ccccc1)nn2CCC#N; 90 to 94 °C
CCC(O)c1ccc(Cl)c2nc3n(c12)CCCN3c1ccc(Cl)cc1Cl (stereo not drawn); 233 to 235 °C

Consider O=C(CCCCCN1CCC(c2cccc(C(F)(F)F)c2)CC1)N1Cc2ccccc2C1 . Its measured melting point is 71 °C

GET /value?item= COc1cc(OC)c(-c2cc3ccccc3s2)cc1/C=C/C(=O)c1ccc(C(N)=O)cc1 &field=melting point returns 240 to 241 °C

Input CN(C)C(=O)CCc1cc(-c2ccncc2)sc1-c1ccncc1 . Output melting point: 166 to 167 °C

The recorded melting point for entry C=CCOc1ccc2c(c1)OCC1c3ccccc3OC21 (stereo not drawn) equals 72 to 74 °C

Lab note: measured melting point of Nc1nc(COCC(F)(F)F)nc2nccnc12 was 145 to 147 °C

# compound Cc1ccc(-c2nc3c([nH]c(=O)c4ccccc43)s2)cc1 ; its melting point = 314 to 316 °C

Recorded melting point (compound COc1cccc(NC(=O)NC(C(C)C)C2CCN(Cc3ccc(Cl)c(Cl)c3)CC2)c1 (racemic) ): 161 to 162 °C

// melting point lookup, compound = C[Si](C)(Cn1cncn1)c1ccc(-c2ccccc2)cc1 , result: 79 to 86 °C

Per the record, O=C(O)C(CCc1ccc2c(c1)CCO2)NC(=O)C(F)(F)F (stereo not drawn) has melting point of 125 °C

Recorded melting point (compound O=c1[nH]c2ncc(-c3ccc(-c4n[nH]c(CO)n4)cc3)nc2n1CC1CCOCC1 ): 258 to 260 °C

Lookup result for O=S(=O)(Cc1ccc(Cl)cc1)Cc1ccc(Cl)cc1 ; measured melting point: 94 to 95 °C

The recorded melting point for entry CCOC(=O)CC(=O)Nc1ccc([N+](=O)[O-])cc1 equals 102 to 103 °C

The compound listed as COCCOc1ccc(-c2cncc(C#N)c2Nc2ccc3[nH]ccc3c2C)cc1 shows melting point equal to 208 to 210 °C

Lab book: melting point of Cc1nnc(-c2ccc3occ(-c4ccc(C(N)=O)cc4)c3c2)o1 noted as 250 to 251 °C

The reported value for CCCCCCCCC[C@@H](CC(N)=O)N(CCC)C(=O)[C@H](CCCC(=O)O)NC(=O)c1cn(Cc2ccccc2)c2ccccc12 in terms of melting point is 155 to 160 °C

For this compound ( OCc1ccc(OCc2csc(-c3ccccc3)n2)cc1 ), measured melting point is 145 to 146 °C

// melting point lookup, compound = COc1ccc2c(c1)sc1nc(C(O)C3CC3)cn12 (stereo not drawn) , result: 151 to 153 °C

Record summary for Cc1cn([C@H]2CC[C@H](CC(=O)O)C[C@@H]2NC(=O)OC(C)(C)C)c(=O)n(COCc2ccccc2)c1=O : reported melting point = 89 to 91 °C

Value of measured melting point for the entry CON=C(C(=O)OC)c1ccc(O)c([N+](=O)[O-])c1 : 93 to 95 °C

Notebook: CC(C)(C)C(=O)Oc1cc2c(c3ccccc13)Nc1ccccc1S2 , melting point read as 142 °C

Entry C=CCCc1nc(N)n2nc(-c3ccco3)nc2n1 , melting point reported as 194 to 196 °C

Value of melting point reported for the compound O=CN1CCN(C[C@H](O)COc2cccc3[nH]ccc23)CC1 is 106 to 107 °C

# melting point of CC#CCn1c(Oc2cc(C)cc(C)c2)c(C(C)C)c(=O)[nH]c1=O = 158 to 160 °C

melting point in this record for CC(CCc1ccccc1)N(Cc1ccccc1)CC(O)c1ccc(N)c(S(N)(=O)=O)c1 (stereo not drawn) : 133 to 136 °C

# compound CCOC(=O)c1cn(-c2c(O)cccc2O)cn1 ; its melting point = 229 to 230 °C

What the record says about O=C(O)COc1cccc(CCc2nc(-c3ccccc3)c(-c3ccccc3)s2)c1 : melting point is 118 to 120 °C

Value of melting point reported for the compound CCc1cc(C(=O)c2ccccc2Cl)c(-n2cnnc2CNC(=O)c2ccc(Cl)c(Cl)c2)s1 is 158 to 160 °C

CCOC(=O)c1sc(-n2ccc(OCc3ccc(F)cc3)cc2=O)nc1C yielded melting point of 214 to 217 °C

====

Reported Property: melting point

Solved cases (5 shown):
CCOC(=O)c1cc2ccccc2n(-c2c(Cl)cccc2Cl)c1=N; 169 to 170 °C
CCCCCCCCCCOc1ccc(CC(=O)OC)cc1; 42 to 44 °C
COc1ccc(C(=O)[C@H]2CCCC[C@H]2C(=O)O)cc1OC1CCCC1 (relative stereo); 120 to 121 °C
N#Cc1c(NC(=O)CO)cccc1N1CCOCC1; 123 to 126 °C
OC(CC1CCNCC1)(c1ccc(F)cc1)c1ccc(F)cc1; 169 to 171 °C

Kindly note the recorded melting point for CN(C)CCNc1ccc(NCCCCC(=O)NOCc2ccccc2)c2c1C(=O)c1ccccc1C2=O , which is 146 to 148 °C

Recorded melting point (compound CC1Oc2cc3nc(S)[nH]c3cc2O1 ): > 300 °C

====

The following compounds are shown together with reported melting point values.
The reply should contain only the number, in °C.

O=C(c1cccnc1)c1cc(-c2cccnc2)c(N2CCOCC2)s1; 145

What the record says about CC(=O)Nc1cc(F)ccc1C(=O)NCCN1CCC2(CC1)C(=O)NCN2c1ccc(F)cc1 : melting point is 195

====

Items are presented alongside their recorded melting point.

Guide cases for melting point, answers given:
CCNC(=S)NS(=O)(=O)c1cnccc1NC1CCCCCCC1; 196 to 198 °C
O=C1COCc2ccccc2N1; 160 to 165 °C

Please look at the following molecule next.
melting point in this record for CN1C(C(=O)Nc2ccc(O)c(=O)cc2)=C(O)c2ccccc2S1(=O)=O : 258 to 265 °C

====

Reported Property: melting point (°C)

1: COC(=O)C1=NNC(C)=C(C(=O)OC(C)C)C1c1cccc([N+](=O)[O-])c1 (stereo not given)
2: CC(C)(C)NS(=O)(=O)c1cnc(Cl)s1
Task: From the recorded data, which exceeds the other in melting point: 1 or 2 ? I would appreciate it if you answered with the label of your choice.
Output: 1

====

Reported Property: melting point

O=C(O)Cc1nn(-c2ccccn2)c2[nH]c3ccccc3c(=O)c12; 229 to 231 °C
CCCCCCCCCCCCC/C=C(\C(=O)Nc1ccc(C(=O)OC)cc1)c1ccc2c(c1)C(C)(C)CCC2(C)C; 93 to 94 °C
C=CC(=O)N1C(C)(C)CC(=C2CC(C)(C)N(C(=O)C=C)C(C)(C)C2)CC1(C)C; 196 to 198 °C
Cn1cccc1CCNc1nc(-c2cccnc2)nc2ccccc12; 140 to 142 °C
CCC(=O)C(C=O)=Cc1cc(O)c(O)c(C#N)c1; 228 to 232 °C

Let's switch to this compound now.
melting point recorded for this compound, COC(=O)CCc1cc2nc(Cl)ccc2n1S(=O)(=O)c1cc(OC)ccc1OC , is 127 °C
